Molecular target: human RXFP1 (Homo sapiens)
Sequence (Q9HBX9 1-757): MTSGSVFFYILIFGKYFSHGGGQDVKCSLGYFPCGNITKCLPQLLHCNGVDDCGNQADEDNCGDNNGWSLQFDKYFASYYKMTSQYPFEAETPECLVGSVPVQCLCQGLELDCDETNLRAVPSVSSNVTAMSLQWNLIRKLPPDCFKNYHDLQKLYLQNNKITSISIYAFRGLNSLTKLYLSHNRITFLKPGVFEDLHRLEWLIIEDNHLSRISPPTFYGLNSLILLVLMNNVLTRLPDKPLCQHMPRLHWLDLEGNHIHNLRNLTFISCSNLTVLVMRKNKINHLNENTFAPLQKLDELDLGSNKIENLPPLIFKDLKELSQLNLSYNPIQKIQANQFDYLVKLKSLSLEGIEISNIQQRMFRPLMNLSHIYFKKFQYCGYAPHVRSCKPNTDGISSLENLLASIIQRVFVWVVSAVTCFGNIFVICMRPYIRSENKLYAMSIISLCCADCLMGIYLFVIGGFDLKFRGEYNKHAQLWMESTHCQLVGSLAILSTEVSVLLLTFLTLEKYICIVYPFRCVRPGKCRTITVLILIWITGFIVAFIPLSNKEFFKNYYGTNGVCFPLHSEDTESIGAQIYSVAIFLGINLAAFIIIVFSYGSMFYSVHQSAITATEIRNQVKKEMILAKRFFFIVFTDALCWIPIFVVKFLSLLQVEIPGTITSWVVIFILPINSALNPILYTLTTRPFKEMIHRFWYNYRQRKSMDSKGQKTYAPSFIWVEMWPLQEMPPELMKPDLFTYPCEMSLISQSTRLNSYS
Experiment: hRXFP1 HEK293 cAMP assay (HTRF)
Details: HEK293 cells stably expressing human RXFP1, 30 min at room temperature
attribute.measured: EC50 (nM)

COc1ccc(C(=O)N2CC[C@H](O)C2)cc1C(=O)N[C@H]1[C@@H](C(=O)Nc2ccc(F)c(C(F)(F)F)c2)[C@H]2CC[C@@H]1/C2=C\C1CC1; 54
COc1ccc(CCC(C)(C)O)cc1C(=O)NC1C2CCC(/C2=C/CC(C)(C)C)[C@@H]1C(=O)Nc1ccc(F)c(C(F)(F)F)c1 (stereo partly shown); 278
COc1ccc(C(=O)N(C)CCS(C)(=O)=O)cc1C(=O)N[C@H]1[C@@H](C(=O)Nc2ccc(F)c(C(F)(F)F)c2)[C@H]2CC[C@@H]1/C2=C\C1CC1; 34.9

A = COc1ccc(C2CC3CC(CO)CC32)cc1C(=O)N[C@H]1[C@@H](C(=O)Nc2ccc(F)c(C(F)(F)F)c2)[C@H]2CC[C@@H]1/C2=C\C1CC1 (single isomer, unassigned) [Example 349]
B = COC(=O)C1CC(c2ccc(OC)c(C(=O)N[C@H]3[C@@H](C(=O)Nc4ccc(F)c(C(F)(F)F)c4)[C@H]4CC[C@@H]3/C4=C\C3CC3)c2)C1 (single isomer, unassigned) [Example 328]
C = COc1c(F)cc(C(=O)NCC2(S(C)(=O)=O)CC2)cc1C(=O)N[C@H]1[C@@H](C(=O)N[C@H](C)C2(C)CC2)[C@H]2CC[C@@H]1/C2=C\c1cnc(C(F)(F)F)s1
D = COc1ccc(COC2CCC(O)CC2)cc1C(=O)N[C@H]1[C@@H](C(=O)Nc2ccc(F)c(C(F)(F)F)c2)[C@H]2CC[C@@H]1/C2=C\C1CC1 (stereo partly shown) [Example 289]
E = COc1ccc(CCCCCCC#N)cc1C(=O)NC1C2CCC(/C2=C/C(F)(F)F)[C@@H]1C(=O)Nc1ccc(F)c(C(F)(F)F)c1 (stereo partly shown)
Challenge: Put the items in order so that reported EC50 rises from first to last. Lab note: record answer as labels in requested order.
Response given: C, D, B, A, E

A = COc1ccc(CCc2ccc(OC)c(C(=O)NC3C4CCC(/C4=C/C(F)(F)F)[C@@H]3C(=O)Nc3ccc(F)c(C(F)(F)F)c3)c2)cc1 (stereo partly shown)
B = COc1ccc(COC2=NOC3COCC23)cc1C(=O)N[C@H]1[C@@H](C(=O)Nc2ccc(F)c(C(F)(F)F)c2)[C@H]2CC[C@@H]1/C2=C\C1CC1 (stereo partly shown)
Challenge: Could you kindly indicate whether A or B has the higher EC50 value? Write down the label of the entry you select.
Response given: B

1 = COc1ccc(CCCCCCC#N)cc1C(=O)NC1C2CCC(/C2=C/C2CCC2)[C@@H]1C(=O)Nc1ccc(F)c(C(F)(F)F)c1 (stereo partly shown)
2 = COc1ccc(C(=O)N2CCCC(CO)C2)cc1C(=O)N[C@H]1[C@@H](C(=O)Nc2ccc(F)c(C(F)(F)F)c2)[C@H]2CC[C@@H]1/C2=C\C1CC1 (stereo partly shown) [Example 233]
3 = COc1ccc(CCCNC(=O)[C@@H](C)O)cc1C(=O)N[C@H]1[C@@H](C(=O)Nc2ccc(F)c(C(F)(F)F)c2)[C@H]2CC[C@@H]1/C2=C\C(F)(F)F
4 = COc1ccc(/C=C/C(=O)NCC(F)(F)F)cc1C(=O)NC1C2CCC(/C2=C/C(F)(F)F)[C@@H]1C(=O)Nc1ccc(F)c(C(F)(F)F)c1 (stereo partly shown)
5 = COc1ccc(CC[C@H](C)O)cc1C(=O)N[C@@H]1C2CCC(/C2=C/C(F)(F)F)[C@@H]1C(=O)Nc1ccc(F)c(C(F)(F)F)c1 (stereo partly shown)
Challenge: Hey, quick one: sort these by EC50, largest value first please. Reply: labels, ordered per the request.
Response given: 4, 5, 3, 2, 1
(4: 776 nM, 5: 172 nM, 3: 106 nM, 2: 65.7 nM, 1: 33 nM)

P = COc1ccc(CCN2CCOC2=O)cc1C(=O)NC1C2CCC(/C2=C/C2CCC2)[C@@H]1C(=O)Nc1ccc(F)c(C(F)(F)F)c1 (stereo partly shown)
Q = COCC/C=C1\C2CCC1[C@H](C(=O)Nc1ccc(F)c(C(F)(F)F)c1)C2NC(=O)c1cc(CCC(C)(C)O)ccc1OC (stereo partly shown)
R = COc1ccc(COC2CCOCC2)cc1C(=O)N[C@H]1[C@@H](C(=O)Nc2ccc(F)c(C(F)(F)F)c2)[C@H]2CC[C@@H]1/C2=C\C1CC1
S = COc1ccc(S(=O)(=O)N2CCNCC2)cc1C(=O)NC1C2CCC(/C2=C/C(F)(F)F)[C@@H]1C(=O)Nc1ccc(F)c(C(F)(F)F)c1 (stereo partly shown)
T = COc1ccc(S(=O)(=O)N2CCS(=O)(=O)CC2)cc1C(=O)NC1C2CCC(/C2=C/C(F)(F)F)[C@@H]1C(=O)Nc1ccc(F)c(C(F)(F)F)c1 (stereo partly shown)
Challenge: Arrange these 5 compounds in increasing order of EC50. A complete answer lists every label in the requested sequence.
Response given: P, R, T, S, Q
(P: 40 nM, R: 58.7 nM, T: 186 nM, S: 858 nM, Q: 1240 nM)

a = COc1ccc(C[C@@H]2CCC(=O)N2)cc1C(=O)NC1C2CCC(/C2=C/C(F)(F)F)[C@@H]1C(=O)Nc1ccc(F)c(C(F)(F)F)c1 (stereo partly shown)
b = COc1ccc(C(O)C(F)(F)F)cc1C(=O)NC1C2CCC(/C2=C/C(F)(F)F)[C@@H]1C(=O)Nc1ccc(F)c(C(F)(F)F)c1 (single isomer, unassigned) [Example 6]
Challenge: Select the item with the higher value of EC50 from the options a and b listed. Kindly state the label of the option you pick.
Response given: b
(b: 1240 nM, a: 850 nM)
